Recorded GI50 for the following compounds
# System: WM266.4 human melanoma cell line
# ASSAY_NOTES: Anti-proliferation assay (MTT)
# Type: cell-based
# TEST_PARAMETERS: WM 266-4, WM266.4 human melanoma cell growth, 24 h
ENDPOINT_LABEL: GI50 (nM)

> print(dat)
                                    compound  qualifier  endpoint.result
 1  Oc1ccccc1C1CC(c2ccc(Br)cc2)=NN1c1ccccc1 (stereo not drawn) [Compound C3]          =             2090
 2  COc1ccc(C2=NN(c3ccccc3)C(c3cc(Cl)cc(Cl)c3O)C2)cc1 (stereo not drawn) [Compound C23]          =             2380
 3  CCCS(=O)(=O)Nc1ccc(F)c(C(=O)c2c[nH]c3ncc(-c4ccc(Cl)cc4)cc23)c1F [Vemurafenib, reference compound]          =              210
 4  Cc1ccc(C2=NN(c3ccccc3)C(c3cc(Br)ccc3O)C2)cc1 (stereo not drawn) [Compound C16]          =             4550
 5  C#Cc1cccc(Nc2ncnc3cc(OCCOC)c(OCCOC)cc23)c1 [Erlotinib, reference compound]          =             8120
 6  Oc1ccc(Br)cc1C1CC(c2ccc(Br)cc2)=NN1c1ccccc1 (stereo not drawn) [Compound C15]          =             2650
 7  Oc1ccc(Cl)cc1C1CC(c2ccc(F)cc2)=NN1c1ccccc1 (stereo not drawn) [Compound C7]          =             4260
 8  COc1ccc(C2=NN(c3ccccc3)C(c3cc(Cl)ccc3O)C2)cc1 (stereo not drawn) [Compound C11]          =             2430
 9  COc1ccc(C2=NN(c3ccccc3)C(c3ccccc3O)C2)cc1 (stereo not drawn) [Compound C5]          =             1980
10  Oc1c(Cl)cc(Cl)cc1C1CC(c2ccc(Br)cc2)=NN1c1ccccc1 (stereo not drawn) [Compound C21]          =             5130
11  Cc1ccc(C2=NN(c3ccccc3)C(c3cc(Cl)ccc3O)C2)cc1 (stereo not drawn) [Compound C10]          =             5370
12  Oc1c(Cl)cc(Cl)cc1C1CC(c2ccc(Cl)c(Cl)c2)=NN1c1ccccc1 (stereo not drawn) [Compound C24]          =             2340
13  Oc1ccc(Br)cc1C1CC(c2ccc(F)cc2)=NN1c1ccccc1 (stereo not drawn) [Compound C13]          =             4450
14  Oc1c(Cl)cc(Cl)cc1C1CC(c2ccc(F)cc2)=NN1c1ccccc1 (stereo not drawn) [Compound C19]          =             3760
15  Oc1ccccc1C1CC(c2ccc(Cl)c(Cl)c2)=NN1c1ccccc1 (stereo not drawn) [Compound C6]          =             1750
16  Oc1ccccc1C1CC(c2ccc(Cl)cc2)=NN1c1ccccc1 (stereo not drawn) [Compound C2]          =             2010
17  Oc1ccccc1C1CC(c2ccc(F)cc2)=NN1c1ccccc1 (stereo not drawn) [Compound C1]          >            50000
18  Cc1ccc(C2=NN(c3ccccc3)C(c3ccccc3O)C2)cc1 (stereo not drawn) [Compound C4]          =             2850

The values you see were collected from paper PMC4020744.
